- target.desc: NDH-2B (Staphylococcus aureus, UniProt Q2FZW0)
- Construct: gene SAOUHSC_00875
- assay.protocol: tryptophan fluorescence quenching titration
- Type: binding
measured.property: Kd (µM)
Unit µM implied. Number only.

## Task Fill: Kd (NDH-2B (Staphylococcus aureus, UniProt Q2FZW0)) for this compound `NC(=O)c1ccc[n+]([C@@H]2O[C@H](COP(=O)([O-])OP(=O)(O)OC[C@H]3O[C@@H](n4cnc5c(N)ncnc54)[C@H](O)[C@@H]3O)[C@@H](O)[C@H]2O)c1`
## Result 170

---

- target.desc: NDH-2B (Staphylococcus aureus, UniProt Q2FZW0)
- Construct: gene SAOUHSC_00875
- Sequence (Q2FZW0 1-354): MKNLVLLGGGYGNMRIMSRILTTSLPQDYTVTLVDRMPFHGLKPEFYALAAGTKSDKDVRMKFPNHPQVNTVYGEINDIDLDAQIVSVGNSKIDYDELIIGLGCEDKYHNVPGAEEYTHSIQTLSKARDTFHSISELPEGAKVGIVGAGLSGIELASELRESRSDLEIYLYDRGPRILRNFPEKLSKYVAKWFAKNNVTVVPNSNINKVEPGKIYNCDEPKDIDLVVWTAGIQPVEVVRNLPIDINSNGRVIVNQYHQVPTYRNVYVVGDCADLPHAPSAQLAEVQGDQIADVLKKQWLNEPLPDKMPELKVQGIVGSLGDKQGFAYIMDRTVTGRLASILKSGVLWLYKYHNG
- assay.protocol: tryptophan fluorescence quenching titration and STD-NMR; KM […] in steady-state kinetics
- Type: binding
measured.property: pKd
// scale note: pKd = -log10(conc_M); give the bare number

## Task Tell me pKd reported for `CC1=C(C)C(=O)c2ccccc2C1=O`
## Result 3.80

// provenance: paper PMC11302666
